Known self-cleavage of a selection of variants
B1: OR4K15 (parent)
chain: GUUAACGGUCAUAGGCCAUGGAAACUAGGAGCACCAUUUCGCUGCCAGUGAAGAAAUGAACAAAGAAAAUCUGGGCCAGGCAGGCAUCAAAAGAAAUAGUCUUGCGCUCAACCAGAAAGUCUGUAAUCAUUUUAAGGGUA

variants of: B1; assay: self-cleavage, relative activity (ratio to wild type); higher = more cleavage; in vitro, sequencing; the parent is a self-cleaving ribozyme
Respond using a number only.

Known results for variants:
- GUUAACGGUCAUAGGCCAUGGAAACUAGGAGCACCAUUUAGCUGCCAGUGAAGAAAUGAACAAAGAAAAUCUGGGCCAGGCAGGCAUCGAAAGAAAUAGUCUUGCGCUCAACCAGAAAGUCUGUAAUCAUUUUAAGGGUA: 1.44
- GUUAACGGUCAUAGGCCAUGGAAACUAGGAGCACCAUCUCGCUGCCAGUGAAGAAAUGGACAAAGAAAAUCUGGGCCAGGCAGGCAUCAAAAGAAAUAGUCUUGCGCUCAACCAGAAAGUCUGUAAUCAUUUUAAGGGUA: 0.61
- GUUAACGGUCAUAGGCCAUGGAAACUAGGAGCACCAUUUCGCUGCCAGUGAAGAAAUGAACAAAGAAAAUCUGGGCCAGGCAGGCAUCAAAAGAAGUAGUCUUGCGCUCAACCAGGAAGUCUGUAAUCAUUUUAAGGGUA: 0.98
- GUUAACGGUCAUAGGCCAUGGAAACUAGGAGCACCUUUUCGCUGCCAGUGAAGAAAUGAACAAAGAAAAUCUGGGCCAGGCAGGCAUCAAAAGAAGUAGUCUUGCGCUCAACCAGAAAGUCUGUAAUCAUUUUAAGGGUA: 1.74
- GUGAACGGACAUAGGCCAUGGAAACUAGGAGCACCAUUUCGCUGCCAGUGAAGAAAUGAACAAAGAAAAUCUGGGCCAGGCAGGCAUCAAAAGAAAUAGUCUUGCGCUCAACCAGAAAGUCUGUAAUCAUUUUAAGGGUA: 0.99
- GUUAACGGUCAUAGGCCAUGGAAACUAGGAGCACCAUUUCGCUGCCAGAGAAGAAGUGAACAAAGAAAAUCUGGGCCAGGCAGGCAUCAAAAGAAAUAGUCUUGCGCUCAACCAGAAAGUCUGUAAUCAUUUUAAGGGUA: 1.74

// query Give its self-cleavage value. Item: GUUAACGGUCAUAGGCCAUGGAAACUAGGAGCACCAUUUCGCUGCCAGUGGAGAAAUGAACAAAGAAAAUCUGGGCCAGGCAGGCAUCAAAAGAAAUAGUCUUGCGCUCAACCAGAUAGUCUGUAAUCAUUUUAAGGGUA
// result 0.52

// query Looking for the measured self-cleavage of GUUAACGGUCAUAGGCCAUGGAAACUAGGAGCACCAUUUCGCUGCCAGUGAAGAAAUGAACUAAGAAAAUCCGGGCCAGGCAGGCAUCAAAAGAAAUAGUCUUGCGCUCAACCAGAAAGUCUGUAAUCAUUUUAAGGGUA , can you help?
// result 0.19

// query Given GUUAACGGUCAUAGGCCAUGGAAACUAGGAGCACCAUUUCGCUGCCAGUGGAGAAAUGAACAAAGAAAAUCUGGGCCAGGCAGGCAUCAAAAGAAAUAGACUUGCGCUCAACCAGAAAGUCUGUAAUCAUUUUAAGGGUA , state its recorded self-cleavage.
// result 0.56

// query Fill in: self-cleavage of GUUAACGGUCAUAGGCCAUGGAAACUAGGAGCACCAUUUCGCUGCCAGUGAAGAAAUGAACAAAGAAAAUCUGGGCCAGGCAGGCAUCAAAAGAAAUAGUCUUGCGCUCAAUCAGAAAGUCUGUAAUCGUUUUAAGGGUA is ___
// result 0.01

// query Any idea what its self-cleavage is? The variant is GUUAACGGUCAUAGGCCAUGGAAACUAGGAGCACCAUUUCGCUGCCAGUGAAGAAAUGAACAAAGAAAAUCUGGGCCAGGCAGGCAUCAAAGGAAAUAGUCUUGCGCUCAACCCGAAAGUCUGUAAUCAUUUUAAGGGUA
// result 0.04

// query Tell me the measured self-cleavage of GCUAACGGUCAUAGGCCAUGGAAACUAGGAGCACCAUUUCGCUGCCAGUGAAGAAAUGAACAAAGAAAAUCUGGGCCAGGCAGGCAUCAAAAGAAAUAGUCUUGCGCUCAGCCAGAAAGUCUGUAAUCAUUUUAAGGGUA , please.
// result 0.04

// query Please give the measured self-cleavage for this variant: GUUAACGGUCAUAGGCCAUGGAAACUAGGAGCACCAUUUCGCUGCCAGUGAAGUAAUGAACAAAGAAAAUCUGGGCCAGGCAGGCAUCAAAAGAAAUAGUCUUGCGCUCAACCAGAAAGUCUGUAAUCAUUUUAUGGGUA
// result 2.01

// query Quick one: self-cleavage for GUUAACGGUCAUAGGCCAUGGAAACUAGGAGCACCAUUUCGCUGCCAGUGAAGAAAUGACCAAAGAAAAUCUGGGCCAGGCAGGCAUCCAAAGAAAUAGUCUUGCGCUCAACCAGAAAGUCUGUAAUCAUUUUAAGGGUA ?
// result 1.8

// query Field request: self-cleavage | item: GUUAACGGUCAUAGGCCAUGGAAACUAGGAGCACCAUUUCGCUGCCAGUGAAGAAAUGAACAAAGAAAAUCCGGGCCAGGCAGGCAUCAAAAGAAAUAGUCUUGCGCUCAACCAGAAAGUCUGUAAUCAUUUUGAGGGUA
// result 0.16

// query Any idea what its self-cleavage is? The variant is GUUAACGGUCAUAGGCCAUGGAAACUAGGAGCACCAUUUCGCUGCCCGGGAAGAAAUGAACAAAGAAAAUCUGGGCCAGGCAGGCAUCAAAAGAAAUAGUCUUGCGCUCAACCAGAAAGUCUGUAAUCAUUUUAAGGGUA
// result 1.78

// query For the variant shown here, GUUAACGGUCAUAGGCCAUGGAAACAAGGAGCACCAUUUCGCUGCCAGUGAAGAAAUGAACAAAGAAAAUCUGGGCCAGGCAGGCAUCAAAAGAAAUAGUCUUGCGCUCAACCAGAAAGUCUGUAAUCACUUUAAGGGUA , give the reported self-cleavage.
// result 0.54

// query Dear colleague, I am looking for the recorded self-cleavage of the following variant: GUUAACGGUCAUAGGCCAUGGAAACUAGGCGCACCAUUUCGCUGCCAGUGAAGAAAUGAACAAAGAAAAUCUGGGCCAGGCAGGCAUCAAAAGAAAUAGUCUUGCGCUCAACCAGGAAGUCUGUAAUCAUUUUAAGGGUA
// result 0.89

// query Recorded self-cleavage of GUUAACGGUCAUAGGCCAUGGAAACUAGGAGCACCAUUUCGCUGCCAGUGAAGAAAUGAACAAAGGAAAUCUGGGCCAGGCAGGCGUCAAAAGAAAUAGUCUUGCGCUCAACCAGAAAGUCUGUAAUCAUUUUAAGGGUA , please.
// result 1.16

// query Using the record for GUUAACGGUCAUAGGCCAUGGAAACUAGGAGCACCAUUUCGCUGCCAGUGAAGAAAUGAACAAAGAAAAUCUGGGCCAGGCUGGCAUCAAAAGAAAUAGUCUUGCGCUCAACCAGAAAGUCUGUAAUCAUUUUAAGGGUG , report its self-cleavage.
// result 0.23

// query // returns reported self-cleavage for input GUUAACGGUCAUAGGCCAUGGAAACUAGGAGCACCAUUUCGCUGCCAGUGAAGAAAUGAACAAAGAAAAUCUGGGCCAGGCAGGCAUCAAAAGAAAUAGUCUUGCGCUCAACCAGCGAGUCUGUAAUCAUUUUAAGGGUA
// result 0.04

// query Fill in the blank: the reported self-cleavage of GUUAACGGUCAUAGGCCAUGGAAACUAGGAGCACCUUUUCGCUGCCAGUGAAGAAAUGAACAAAGAAAAUCUGGGCCAGGCAGGCAUCAAAAGAAAUAGUCUUGCGCUCAACCAGAAAGUCUGUAAUCAUUUUAAGGGUA is ____.
// result 1.38

// query Bench note: what self-cleavage did GUUAACGGUCAUAGGCCAUGGAAACUAGGAGCACCAUUUCGCUGCCAGUGAAGAAAUGAACAAAGAAAAUCUGGGCCAGGCAGGCAUCAAAAGAGAUAGUCUUGCGCUCAACCAGAAAGUCUGUAAUCAUUUUAAGUGUA show?
// result 2.07

// query Query: self-cleavage; subject: GUUAACGGUCAUAGGCCAUGGAAACCAGGAGCACCAUUUCGCUGCCAGUGCAGAAAUGAACAAAGAAAAUCUGGGCCAGGCAGGCAUCAAAAGAAAUAGUCUUGCGCUCAACCAGAAAGUCUGUAAUCAUUUUAAGGGUA
// result 1.55

// query Which self-cleavage value belongs to GUUAACUGUCAUAGGCCAUGGAAACUAGGAGCACCAUUUCGCUGCCAGUGAAGAAAUGAACAAAGAAAAUCUGGGCCAGGCAGGCAUCAAAAGAAAUAGUCUCGCGCUCAACCAGAAAGUCUGUAAUCAUUUUAAGGGUA ?
// result 0.65

// query Request the reported self-cleavage associated with GUUAACGGUCAUAGGCCAUGGAAACUAGGAGCACCAUUUCGCUGCCAGUGAAGAAAUGAACAAAGAAAAUCUGGGCCAGGCAGGCAUCAAAAGAAUUAGUCUUGCGCUCAACCAGAGAGUCUGUAAUCAUUUUAAGGGUA
// result 1.75

// query GET /values?readout=self-cleavage&item= GUUAACGGUCAUAGGCCAUGGAAACUAGGAGCACCAUUUCGCUGCCAGUGAAGAAAUGAACAAAGAAAAUCUGGGCCAGGCAGGCAUCAAAAGAAAUAGUCUUGCACUCAACCAGAAAGUCUGUAAUCAUUCUAAGGGUA
// result 0.01
